biological target: panel of more than 300 wild-type and mutant kinases (313 kinase panel) (Homo sapiens); assay: Kinase profiling in a biochemical assay panel (mobility shift assays and ELISA), %-inhibition at 1 μM; selectivity entropy; settings: kinase CaMK2α; 1 μM compound
Sequence (Q9UQM7 whole entry, change not shown): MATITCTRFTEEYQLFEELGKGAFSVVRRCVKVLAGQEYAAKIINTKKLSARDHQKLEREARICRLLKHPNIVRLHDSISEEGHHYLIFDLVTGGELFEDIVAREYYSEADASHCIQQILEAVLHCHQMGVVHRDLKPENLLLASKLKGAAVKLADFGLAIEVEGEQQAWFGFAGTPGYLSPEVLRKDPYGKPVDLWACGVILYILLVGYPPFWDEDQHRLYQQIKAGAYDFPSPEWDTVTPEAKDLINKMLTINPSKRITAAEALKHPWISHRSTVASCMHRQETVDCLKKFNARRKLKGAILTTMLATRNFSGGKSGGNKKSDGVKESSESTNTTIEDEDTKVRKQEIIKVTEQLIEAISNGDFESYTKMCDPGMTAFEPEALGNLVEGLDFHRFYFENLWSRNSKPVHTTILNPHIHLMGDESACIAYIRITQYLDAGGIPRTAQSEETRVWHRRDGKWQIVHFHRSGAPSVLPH
Provide the reported %-inhibition, CaMK2α of each item.
Give bare numbers, in %.

Solved entries:
compound	%-inhibition, CaMK2α, %
Cc1cn(-c2cc(NC(=O)c3ccc(C)c(Nc4nccc(-c5cccnc5)n4)c3)cc(C(F)(F)F)c2)cn1	-5
COc1cc2nccc(Oc3ccc(NC(=O)C4(C(=O)Nc5ccc(F)cc5)CC4)cc3)c2cc1OC [cabozantinib]	-8
CO[C@H]1C[C@@H]2CC[C@@H](C)[C@@](O)(O2)C(=O)C(=O)N2CCCC[C@H]2C(=O)O[C@H]([C@H](C)C[C@@H]2CC[C@@H](OCCO)[C@H](OC)C2)CC(=O)[C@H](C)/C=C(\C)[C@@H](O)[C@@H](OC)C(=O)[C@H](C)C[C@H](C)/C=C/C=C/C=C/1C	-8

Provide the reported %-inhibition, CaMK2α of each entry below, same order.
1. CCCS(=O)(=O)Nc1ccc(F)c(C(=O)c2c[nH]c3ncc(-c4ccc(Cl)cc4)cc23)c1F
2. O=S(=O)(c1cccc2cnccc12)N1CCCNCC1
3. CC(C)(C)c1nc(-c2cccc(NS(=O)(=O)c3c(F)cccc3F)c2F)c(-c2ccnc(N)n2)s1

1: -4.25; 2: -0.681; 3: -2.14

Record Cc1nc(Nc2ncc(C(=O)Nc3c(C)cccc3Cl)s2)cc(N2CCN(CCO)CC2)n1 has panel of more than 300 wild-type and mutant kinases (313 kinase panel) (Homo sapiens) %-inhibition, CaMK2α equal to -2.78
